Item-by-item account of pIC50
Biological target: HIV protease (Human immunodeficiency virus type 1 group M subtype B, UniProt P04585)
Construct: plasmid containing HIV protease under the control of the T7 promotor
Assay: Cell Free HIV Protease Inhibition Assay (gag polyprotein)
Details: HIV gag polyprotein substrate, 30° C.
pIC50: −log10 of the molar value.

{"STRUCTURE": "CC(C)(C)NC(=O)[C@@H]1C[C@@H]2CCCC[C@@H]2CN1C[C@H](O)[C@H](O)[C@H](Cc1ccccc1)NC(=O)[C@H](CC(N)=O)NC(=O)c1ccc2ccccc2n1", "VALUE RELATION SIGN": "<", "pIC50": 4.75}
{"STRUCTURE": "CC(C)(C)NC(=O)[C@@H]1C[C@@H]2CCCC[C@@H]2CN1C[C@@H](O)[C@H](O)[C@H](Cc1ccccc1)NC(=O)[C@H](CC(N)=O)NC(=O)OCc1ccccc1", "VALUE RELATION SIGN": "<", "pIC50": 4.74}
{"STRUCTURE": "CC(C)(C)NC(=O)[C@@H]1C[C@@H]2CCCC[C@@H]2CN1C[C@@H](O)[C@@H](O)[C@H](Cc1ccccc1)NC(=O)[C@H](CC(N)=O)NC(=O)c1ccc2ccccc2n1", "VALUE RELATION SIGN": "=", "pIC50": 6.27}
{"STRUCTURE": "CC(C)(C)NC(=O)[C@@H]1C[C@@H]2CCCC[C@@H]2CN1C[C@@H](O)[C@H](O)[C@H](Cc1ccccc1)NC(=O)[C@H](CC(N)=O)NC(=O)c1ccc2ccccc2n1", "VALUE RELATION SIGN": "<", "pIC50": 4.75}
{"STRUCTURE": "CC(C)(C)NC(=O)[C@@H]1C[C@@H]2CCCC[C@@H]2CN1C[C@@H](O)[C@@H](O)[C@H](Cc1ccccc1)NC(=O)[C@H](CC(N)=O)NC(=O)OCc1ccccc1", "VALUE RELATION SIGN": "=", "pIC50": 5.52}
